assay: Aqueous solubility of compound at pH 1.4 after 18 to 24 hrs by RP-HPLC analysis; type: physicochemical
ASSAY READOUT: solubility
Could you write the number and then its unit?

Value lookup for solubility; key = COc1cnc(OC)c2c1c(C(=O)C(=O)N1CCN(C(=O)c3ccccc3)CC1)cn2COP(=O)(O)O.NCCCC[C@H](N)C(=O)O
220 µg/mL

====

assay: Aqueous solubility of compound at pH 5.4; assay type: physicochemical
ASSAY READOUT: solubility

Value lookup for solubility; key = COc1cnc(OC)c2c1c(C(=O)C(=O)N1CCN(C(=O)c3ccccc3)CC1)cn2COP(=O)(O)O.NCCCC[C@H](N)C(=O)O
> 12 mg/mL

====

test: Half life in high fat fed healthy human at 800 mg, po administered as capsule with high fat meal; format: ADME, organism-based; conditions: in vivo
ASSAY READOUT: half-life

Value lookup for half-life; key = COc1ncc(OC)c2c(C(=O)C(=O)N3CCN(C(=O)c4ccccc4)CC3)c[nH]c12
14 h

====

test system: Cynomolgus monkey; assay: Cmax in cynomolgus monkey assessed as BMS-488043 level at 7.1 mg/kg, po; type: ADME, organism-based, Macaca fascicularis; parameters: dose 7.1 mg/kg, route oral; conditions: in vivo
ASSAY READOUT: Cmax (µM)
Write the number in µM without appending the unit.

Value lookup for Cmax; key = COc1cnc(OC)c2c1c(C(=O)C(=O)N1CCN(C(=O)c3ccccc3)CC1)cn2COP(=O)(O)O.NCCCC[C@H](N)C(=O)O
16.4

====

assay: AUC (infinity) in healthy human at 200 mg, po administered with high fat meal; type: ADME, organism-based; design: dose 200 mg, route oral, time infinity; conditions: plasma
ASSAY READOUT: AUC(0-inf) (ng·h/mL)
Write the number in ng·h/mL without appending the unit.

Value lookup for AUC(0-inf); key = COc1cnc(OC)c2c1c(C(=O)C(=O)N1CCN(C(=O)c3ccccc3)CC1)cn2COP(=O)(O)O.NCCCC[C@H](N)C(=O)O
14200

====

tested on: Rattus norvegicus; assay: Cmax in Sprague-Dawley rat assessed as BMS-488043 level at 7.9 mg/kg, po; assay type: ADME, organism-based; design: dose 7.9 mg/kg, route oral; conditions: in vivo
ASSAY READOUT: Cmax (µM)
Write the number in µM without appending the unit.

Value lookup for Cmax; key = COc1cnc(OC)c2c1c(C(=O)C(=O)N1CCN(C(=O)c3ccccc3)CC1)cn2COP(=O)(O)O.NCCCC[C@H](N)C(=O)O
3.94

====

experiment: Mean residence time in cynomolgus monkey at 1.3 mg/kg, iv; format: ADME, organism-based, Macaca fascicularis; design: dose 1.3 mg/kg, route intravenous; conditions: in vivo
ASSAY READOUT: MRT (min)
Write the number in min without appending the unit.

Value lookup for MRT; key = COc1cnc(OC)c2c1c(C(=O)C(=O)N1CCN(C(=O)c3ccccc3)CC1)cn2COP(=O)(O)O.NCCCC[C@H](N)C(=O)O
10.8

====

assay: Clearance in beagle dog at 1.2 mg/kg, iv; type: ADME, organism-based, Canis lupus familiaris; parameters: dose 1.2 mg/kg, route intravenous; settings: in vivo
ASSAY READOUT: clearance (L/h/kg)
Write the number in L/h/kg without appending the unit.

Value lookup for clearance; key = COc1cnc(OC)c2c1c(C(=O)C(=O)N1CCN(C(=O)c3ccccc3)CC1)cn2COP(=O)(O)O.NCCCC[C@H](N)C(=O)O
4.2
